Target: T1, APC2981-AA
T1 chain: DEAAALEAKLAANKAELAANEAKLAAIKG
Assay: two-hybrid library CCmax;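 further: natural log of median RNA to DNA barcode read ratio; higher means stronger binding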
Settings: mean of both orientations
Value kind: interaction score
Response field accepts a number only; no unit should be typed.

Here's what some known entries look like.
Binder | interaction score
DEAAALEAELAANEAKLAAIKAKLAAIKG [APC2811-AA] | -1.57
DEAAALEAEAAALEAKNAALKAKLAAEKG [APC2257-AA] | -1.18
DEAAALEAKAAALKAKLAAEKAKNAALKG [APC2375-AA] | -1.45
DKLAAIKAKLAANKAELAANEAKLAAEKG [APC1987-AA] | -1.82
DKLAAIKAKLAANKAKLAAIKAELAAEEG [APC1916-AA] | -1.78

[Q] Give the measured interaction score for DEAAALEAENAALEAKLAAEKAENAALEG [APC2474-AA]
[A] -1.45

[Q] Output measured interaction score for this item: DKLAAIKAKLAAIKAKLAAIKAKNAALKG [APC1115-AA]
[A] -1.43

[Q] Give interaction score for the following binder: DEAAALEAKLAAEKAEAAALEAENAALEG [APC2724-AA]
[A] -1.68

[Q] Identify interaction score associated with the binder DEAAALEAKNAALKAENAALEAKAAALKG [APC2543-AA]
[A] -1.4

[Q] Using known records, supply interaction score for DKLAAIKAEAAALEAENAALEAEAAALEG [APC1242-AA]
[A] -1.87

[Q] Answer with the recorded interaction score for the binder listed here: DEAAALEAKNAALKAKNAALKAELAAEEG [APC2556-AA]
[A] -1.98

[Q] Given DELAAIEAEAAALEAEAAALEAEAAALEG [APC222-AA] , respond with its interaction score.
[A] -1.93
